target: human kisspeptin receptor (Homo sapiens (Human), UniProt Q969F8); test: Human KISS1R binding assay (membrane competition binding); conditions: 90 min at room temperature; competition with 0.2 nM [125I]-metastin (45-54); Flp-In T-Rex 293 kisspeptin membranes; metal complexes nonradioactive Ga, In, Lu; read-out: hKiSSR Binding Ki (90 min)
Sequence (Q969F8 whole entry): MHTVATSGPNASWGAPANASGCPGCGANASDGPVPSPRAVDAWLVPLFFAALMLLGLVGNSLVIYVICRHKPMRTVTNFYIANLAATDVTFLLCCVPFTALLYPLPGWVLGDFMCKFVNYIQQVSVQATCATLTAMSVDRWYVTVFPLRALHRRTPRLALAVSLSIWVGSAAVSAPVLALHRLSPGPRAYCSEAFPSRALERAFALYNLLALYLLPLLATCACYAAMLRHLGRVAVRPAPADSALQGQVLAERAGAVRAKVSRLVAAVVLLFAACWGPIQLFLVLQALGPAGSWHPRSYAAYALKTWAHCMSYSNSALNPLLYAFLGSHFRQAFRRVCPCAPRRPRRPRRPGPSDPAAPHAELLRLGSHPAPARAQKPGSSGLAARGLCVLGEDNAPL
Numbered stars: 1 amine (or outer) side, 2 acyl side, 3 side chain; on linkers, the order of the positions; unused ones are H or OH. Square brackets hold non-standard residues; d marks the D form. Peptide text beside a SMILES is read from it. * marks the point of attachment. DOTA = O=C(O)CN1CCN(CC(=O)O)CCN(CC(=O)*)CCN(CC(=O)O)CC1; Gly(N-(3-F-4-Me-benzyl)) = Cc1ccc(CNCC(=O)*)cc1F; Phe(3-F) = N[C@@H](Cc1cccc(F)c1)C(=O)O; X1 = O=C(CN1CCC(N[*:1])CC1)[*:2]; Api = NC1(C(=O)O)CCNCC1; Ahx = NCCCCCC(=O)O; azaGly = NNC(=O)O
I'd appreciate it if you could supply Ki values for the items below.

Fill in Ki for record Cc1ccc(CNCC(=O)N2CCC(NC(=O)[C@H](CC(C)C)NC(=O)NNC(=O)[C@H](Cc3cccc(F)c3)NC(=O)[C@@H](NC(=O)[C@H](CC(N)=O)NC(=O)[C@H](Cc3c[nH]c4ccccc34)NC(=O)[C@@H](Cc3ccc(O)cc3)NC(=O)CCCCCNC(=O)CN3CCN(CC(=O)O)CCN(CC(=O)O)CCN(CC(=O)O)CC3)[C@@H](C)O)(C(=O)N[C@@H](Cc3c[nH]c4ccccc34)C(N)=O)CC2)cc1F [Compound 35] ({DOTA-Ahx}-[dY]WNT[Phe(3-F)][azaGly]L[Api](Gly(N-(3-F-4-Me-benzyl)))W-NH2)
< 10 nM

Fill in Ki for record Cc1ccc(CNCC(=O)N2CCC(NC(=O)[C@H](CC(C)C)NC(=O)NNC(=O)[C@H](Cc3ccccc3)NC(=O)[C@@H](NC(=O)CN3CCC(NC(=O)CN4CCN(CC(=O)O)CCN(CC(=O)O)CCN(CC(=O)O)CC4)CC3)[C@@H](C)O)(C(=O)N[C@@H](Cc3c[nH]c4ccccc34)C(N)=O)CC2)cc1F [Compound 233] ({DOTA}-[X1]TF[azaGly]L[Api](Gly(N-(3-F-4-Me-benzyl)))W-NH2)
< 10 nM

Fill in Ki for record Cc1ccc(CNCC(=O)N2CCC(NC(=O)c3cc(OCCNC(=O)[C@H](Cc4ccccc4)NC(=O)CN4CCC(NC(=O)CN5CCN(CC(=O)O)CCN(CC(=O)O)CCN(CC(=O)O)CC5)CC4)cc(-c4ccccc4)c3)(C(=O)N[C@@H](Cc3c[nH]c4ccccc34)C(N)=O)CC2)cc1F
> 100 nM

----------
biological target: human kisspeptin receptor (Homo sapiens (Human), UniProt Q969F8); experiment: Human KISS1R binding assay (membrane competition binding); conditions: 90 min at room temperature; competition with 0.2 nM [125I]-metastin (45-54); Flp-In T-Rex 293 kisspeptin membranes; metal complexes nonradioactive Ga, In, Lu; read-out: hKiSSR Binding Ki (90 min)
pKi: −log10 of the molar value. Square brackets hold non-standard residues; d marks the D form. Peptide text beside a SMILES is read from it. * marks the point of attachment. DOTA = O=C(O)CN1CCN(CC(=O)O)CCN(CC(=O)*)CCN(CC(=O)O)CC1; Gly(N-(3-F-4-Me-benzyl)) = Cc1ccc(CNCC(=O)*)cc1F; Api(1-amidino) = N=C(N)N1CCC(N)(C(=O)O)CC1; Phe(4-CN) = N#Cc1ccc(C[C@H](N)C(=O)O)cc1; HO(CH2CH2O)2CH2CH2CO = O=C(CCOCCOCCO)*; 2Nal = N[C@@H](Cc1ccc2ccccc2c1)C(=O)O; 4Pal = N[C@@H](Cc1ccncc1)C(=O)O; 4Amb = NCc1ccc(C(=O)O)cc1; Api = NC1(C(=O)O)CCNCC1; PEG2 = NCCOCCOCCC(=O)O; Ahx = NCCCCCC(=O)O; azaGly = NNC(=O)O
QUANTITY_MEASURED: pKi

Fill in pKi for record Cc1ccc(CNCC(=O)N2CCC(NC(=O)[C@@H](CC(C)C)NC(=O)NNC(=O)[C@H](Cc3ccccc3)NC(=O)c3ccc(CNC(=O)CN4CCN(CC(=O)O)CCN(CC(=O)O)CCN(CC(=O)O)CC4)cc3)(C(=O)N[C@@H](Cc3c[nH]c4ccccc34)C(N)=O)CC2)cc1F [Compound 260] ({DOTA-4Amb}-F[azaGly][dL][Api](Gly(N-(3-F-4-Me-benzyl)))W-NH2)
7.00 to 8.00

Fill in pKi for record Cc1ccc(CNCC(=O)N2CCC(NC(=O)[C@H](CC(C)C)SCCNC(=O)[C@H](Cc3ccccc3)NC(=O)CCCCCNC(=O)CN3CCN(CC(=O)O)CCN(CC(=O)O)CCN(CC(=O)O)CC3)(C(=O)N[C@@H](Cc3c[nH]c4ccccc34)C(N)=O)CC2)cc1F
> 8.00

Fill in pKi for record CC(C)C[C@H](NC(=O)NNC(=O)[C@H](Cc1ccccc1)NC(=O)[C@@H](NC(=O)[C@H](CC(N)=O)NC(=O)[C@H](Cc1ccc2ccccc2c1)NC(=O)[C@@H](Cc1ccc(O)cc1)NC(=O)CCCCCNC(=O)CN1CCN(CC(=O)O)CCN(CC(=O)O)CCN(CC(=O)O)CC1)[C@@H](C)O)C(=O)NC1(C(=O)N[C@@H](Cc2ccc(C#N)cc2)C(N)=O)CCN(C(=N)N)CC1 [Compound 278] ({DOTA-Ahx}-[dY][2Nal]NTF[azaGly]L[Api(1-amidino)][Phe(4-CN)]-NH2)
> 8.00

Fill in pKi for record Cc1ccc(CNCC(=O)N2CCC(NC(=O)[C@H](CC(C)C)NC(=O)NNC(=O)[C@H](Cc3ccccc3)NC(=O)[C@@H](NC(=O)[C@H](CC(N)=O)NC(=O)[C@@H](CCCCNC(=O)CN3CCN(CC(=O)O)CCN(CC(=O)O)CCN(CC(=O)O)CC3)NC(=O)CCOCCOCCO)[C@@H](C)O)(C(=O)N[C@@H](Cc3ccncc3)C(N)=O)CC2)cc1F [Compound 254] ({HO(CH2CH2O)2CH2CH2CO}-[dK](DOTA)NTF[azaGly]L[Api](Gly(N-(3-F-4-Me-benzyl)))[4Pal]-NH2)
> 8.00

Fill in pKi for record Cc1ccc(CNCC(=O)N2CCC(NC(=O)[C@H](CC(C)C)NC(=O)NNC(=O)[C@H](Cc3ccccc3)NC(=O)[C@@H](NC(=O)[C@H](CC(N)=O)NC(=O)[C@@H](Cc3c[nH]c4ccccc34)NC(=O)[C@@H](Cc3ccc(O)cc3)NC(=O)CCOCCOCCNC(=O)CN3CCN(CC(=O)O)CCN(CC(=O)O)CCN(CC(=O)O)CC3)[C@@H](C)O)(C(=O)N[C@@H](Cc3c[nH]c4ccccc34)C(N)=O)CC2)cc1F [Compound 382] ({DOTA-PEG2}-[dY][dW]NTF[azaGly]L[Api](Gly(N-(3-F-4-Me-benzyl)))W-NH2)
> 8.00
